# Test system: Daoy (glioblastoma)
# assay-name: MTS cell viability assay, Daoy
# Assay type: cell-based
# setup-conditions: Homo sapiens, Daoy, 72 h incubation
property: pIC50
pIC50 field: float, defined as -log10 of concentration (mol/L).

// worked examples, pIC50 included
input: What does the record list as pIC50 for C=C(C)[C@@H]1CC[C@]2(C=NO)CC[C@]3(C)[C@H](CC[C@@H]4[C@@]5(C)CCC(=NOC(C)=O)C(C)(COC(C)=O)[C@@H]5CC[C@]43C)[C@@H]12 (some centres unmarked) ?
output: 4.85

input: What does the record list as pIC50 for C=C(C)[C@@H]1CC[C@]2(CO)CC[C@]3(C)[C@H](CC[C@@H]4[C@@]5(C)CC[C@H](O)C(C)(CO)[C@@H]5CC[C@]43C)[C@@H]12 (some centres unmarked) [Compound 5, 23-hydroxybetulin, reference compound] ?
output: 4.19

Shifting focus to the compound that follows.
input: What does the record list as pIC50 for C=C(C)[C@@H]1CC[C@]2(CO)CC[C@]3(C)[C@H](CC[C@@H]4[C@@]5(C)CCC(=NOC(C)=O)C(C)(COC(C)=O)[C@@H]5CC[C@]43C)[C@@H]12 (some centres unmarked) [Compound 15b] ?
output: 4.47
